# assayExplanation: Cmax in blood of OFA rat model of T-cell dependent B cell response at 10 mg/kg, po BID for 4 days starting 2 days prior to immunization and measured after 14 hrs
# Type: ADME, organism-based
# Set-up: route oral, time 4 day, dose 10 mg/kg
reportedEndpoint: Cmax (µM)
Enter your answer as a number in µM; do not include the unit.

Q: What Cmax value was documented for this molecule, CC(C)c1c(NC(=O)Nc2cnc(-n3nccn3)c(Cl)c2)cnc2cc(Cl)nn12 ?
Result: 3.3

* * *

# assayExplanation: Half life in rat at 1 mg/kg, iv via cassette dosing
# Type: ADME, organism-based
# assayConditions: in vivo
reportedEndpoint: half-life
Reply with a number, then the unit it belongs to.

CC(C)c1c(NC(=O)Nc2cnc(-n3nccn3)c(Cl)c2)cnc2cc(Cl)nn12 :: 5.4 h

// switching to the query compound
Q: Which half-life value is on record for C[C@H]1COC[C@H](C)N1c1c(NC(=O)Nc2ccnc(C(F)(F)F)c2)cnc2cc(Cl)nn12 ?
Result: 3.3 h
